IC50 values, listed per item
TEST_TARGET: Gag-Pol polyprotein [600-1029,C879S]/[600-1159,C879S] (Human immunodeficiency virus 1, UniProt P03366, C879S)
Construct: 600-1029; 600-1159
PROTOCOL: HIV-1 RT Assay

[
  {
    "COMPOUND": "NC(=O)c1scnc1-c1cccc(I)c1 [4-(3-Iodophenyl)thiazole-5-carboxamide]",
    "IC50": "> 312 µM"
  },
  {
    "COMPOUND": "NC(=O)c1[nH]cnc1-c1cccc(-c2ccccc2)c1",
    "IC50": "> 312 µM"
  },
  {
    "COMPOUND": "NC(=O)c1scnc1-c1cccc(-c2ccccc2)c1",
    "IC50": "> 312 µM"
  }
]
